# SYSTEM UNDER TEST: Human IL-17A (Homo sapiens)
# Sequence (Q16552 20-155 limits assumed): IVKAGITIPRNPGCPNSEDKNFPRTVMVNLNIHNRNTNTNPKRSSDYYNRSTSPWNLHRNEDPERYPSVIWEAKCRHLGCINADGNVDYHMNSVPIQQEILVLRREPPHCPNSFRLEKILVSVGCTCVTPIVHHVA
# ASSAY OVERVIEW: Inhibition of human IL-17A protein-induced GROα/CXCL1 production in HT-29 cells
# Assay type: cell-based
# Design: purchased R&D 317-ILB; host or cells: added exogenously to HT-29 cells
# TEST PARAMETERS: 30 ng/mL human IL-17A protein, 48 h, GROα in supernatant by ELISA kit, read-out: Inhibitory IC50 of compounds on HT-29 cell GROα/CXCL1
pIC50: −log10 of the molar value.
PROPERTY: pIC50

Data point: Cc1[nH]nc2c1-c1cc(F)c(NC(=O)[C@@H](NC(=O)c3ccnn3C(C)C)C(C3CC3)C3CC3)cc1CN(CC1CC1)C(=O)C2 [compound 153] ; pIC50 = ≥ 7.00

Data point: Cc1[nH]nc2c1-c1cc(F)c(NC(=O)[C@@H](NC(=O)c3ccnn3CCCF)C(C3CC3)C3CC3)cc1CN(CC(F)F)CC2 [compound 181] ; pIC50 = ≥ 7.00

Data point: Cc1[nH]nc2c1-c1cnc(NC(=O)[C@@H](NC(=O)c3ccnn3C(C)C)C(C3CC3)C3CC3)cc1CN(C1CCC1)CC2 [compound 201] ; pIC50 = ≥ 7.00

Data point: CCn1nccc1C(=O)N[C@H](C(=O)Nc1cc2c(cc1F)-c1c(n[nH]c1C)CC(=O)N(C)C2)C(C1CC1)C1CC1 [compound 133] ; pIC50 = 6.30 to 7.00

Data point: Cc1[nH]nc2c1-c1cnc(NC(=O)[C@@H](NC(=O)c3ccnn3C(C)C)C(C3CC3)C3CC3)cc1CN(C(C)C)CC2 [compound 200] ; pIC50 = 6.30 to 7.00

Data point: Cc1[nH]nc2c1-c1cc(F)c(NC(=O)[C@@H](NC(=O)c3ccnn3CCOC3CC3)C(C3CC3)C3CC3)cc1COCC2 [compound 102] ; pIC50 = ≥ 7.00

Data point: Cc1[nH]nc2c1-c1ccc(NC(=O)[C@@H](NC(=O)c3ccnn3C(C)C)C(C3CC3)C3CC3)cc1CN(C)C(=O)C2 [compound 22] ; pIC50 = ≥ 7.00

Data point: Cc1[nH]nc2c1-c1cnc(NC(=O)[C@@H](NC(=O)c3conc3C3CC3)C(C3CC3)C3CC3)cc1CN(C1CC1)CC2 [compound 215] ; pIC50 = ≥ 7.00

Data point: Cc1c2c(nn1COCC[Si](C)(C)C)CC(=O)N(Cc1ccccc1)Cc1cc(N)c(F)cc1-2 [compound 183] ; pIC50 = 6.30 to 7.00

Data point: Cc1[nH]nc2c1-c1cc(F)c(NC(=O)[C@@H](NC(=O)c3ccnn3C(C)C)C(C3CC3)C3CC3)cc1CN(C1CCC(F)(F)CC1)CC2 [compound 175] ; pIC50 = ≥ 7.00

Source of measurements: patent US20260258050A1
